molecular target: DLL3 endogenously expressed on NCI-H82 cells (UniProt Q9NYJ7); assay: FACS on NCI-H82 cells; antibody 0.032 nM
Sequence (Q9NYJ7 27-618): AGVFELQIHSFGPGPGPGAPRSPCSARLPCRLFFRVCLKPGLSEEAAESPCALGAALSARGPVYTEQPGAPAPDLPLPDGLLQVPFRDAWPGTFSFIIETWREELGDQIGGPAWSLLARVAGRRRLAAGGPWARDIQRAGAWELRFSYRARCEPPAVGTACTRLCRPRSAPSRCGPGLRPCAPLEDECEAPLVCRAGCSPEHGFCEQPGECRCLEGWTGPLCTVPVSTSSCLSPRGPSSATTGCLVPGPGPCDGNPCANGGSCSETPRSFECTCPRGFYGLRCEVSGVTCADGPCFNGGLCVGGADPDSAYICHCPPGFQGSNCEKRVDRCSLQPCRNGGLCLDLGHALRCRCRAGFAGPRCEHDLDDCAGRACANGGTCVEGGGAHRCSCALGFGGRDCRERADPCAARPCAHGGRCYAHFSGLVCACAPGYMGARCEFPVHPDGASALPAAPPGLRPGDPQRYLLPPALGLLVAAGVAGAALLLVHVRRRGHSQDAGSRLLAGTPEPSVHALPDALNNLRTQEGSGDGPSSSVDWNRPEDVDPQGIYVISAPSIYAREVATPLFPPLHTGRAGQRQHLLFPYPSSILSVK
OBSERVED_PROPERTY: MFI

Hab008L3H5-hFc (scFv, part only; not given: scFv linker and human IgG1 Fc, V domains shown, not shown: another chain or arm of the molecule; a dimerising Fc or GST; small tags and cut ends) VL: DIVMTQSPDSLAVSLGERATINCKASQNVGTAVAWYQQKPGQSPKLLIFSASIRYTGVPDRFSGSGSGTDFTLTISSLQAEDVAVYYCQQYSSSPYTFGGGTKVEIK VH: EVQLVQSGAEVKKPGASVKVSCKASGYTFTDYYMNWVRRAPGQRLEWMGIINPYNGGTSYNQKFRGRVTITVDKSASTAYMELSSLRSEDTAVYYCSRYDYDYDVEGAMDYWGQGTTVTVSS = 91
